conditions: 290.15 K; 100 kPa; Liquid; Vibrating tube method
± gives the expanded uncertainty stated by the source.
Measurement type: mass density
# do not omit the unit; it follows the number

Use these answered entries as a reference point.
Prompt: Please list mass density recorded for the molecule C[N+](CCO)(CCO)CCO.O=S(=O)([N-]S(=O)(=O)C(F)(F)F)C(F)(F)F
Response: 1574 ± 1.2 kg/m3

Prompt: Item CCCC[N+](C)(C)CC.O=S(=O)([N-]S(=O)(=O)C(F)(F)F)C(F)(F)F : provide mass density
Response: 1378.8 ± 1.1 kg/m3

Prompt: Report mass density, nothing else, for this molecule: CC[N+](C)(C)CCCO.O=S(=O)([N-]S(=O)(=O)C(F)(F)F)C(F)(F)F
Response: 1470.5 ± 1.2 kg/m3

Prompt: Supply measured mass density of CC[N+](C)(C)CCOC.O=S(=O)([N-]S(=O)(=O)C(F)(F)F)C(F)(F)F in your reply.
Response: 1438.6 ± 1.1 kg/m3

Prompt: Specify mass density for CC[N+](C)(CCO)CCO.O=S(=O)([N-]S(=O)(=O)C(F)(F)F)C(F)(F)F and stop.
Response: 1522.7 ± 1.2 kg/m3

Prompt: Supply recorded mass density for CC[N+](CCO)(CCO)CCO.O=S(=O)([N-]S(=O)(=O)C(F)(F)F)C(F)(F)F here.
Response: 1536.7 ± 1.2 kg/m3

Then this molecule:
Prompt: Please indicate mass density recorded for CCCC[N+](CCO)(CCO)CCO.O=S(=O)([N-]S(=O)(=O)C(F)(F)F)C(F)(F)F
Response: 1463.6 ± 1.2 kg/m3

###

Some compounds, each annotated with its measured mass density.
conditions: 288.15 K; 100 kPa; Liquid; Vibrating tube method
Reply numerically in kg/m3, unit not repeated.

A selection of reference data follows.
Prompt: Item CCCC[N+](C)(C)CC.O=S(=O)([N-]S(=O)(=O)C(F)(F)F)C(F)(F)F : provide mass density
Response: 1380.6

Prompt: Give mass density for CC[N+](C)(C)CCOC.O=S(=O)([N-]S(=O)(=O)C(F)(F)F)C(F)(F)F
Response: 1440.5

Prompt: Determine its reported mass density: CC[N+](CCO)(CCO)CCO.O=S(=O)([N-]S(=O)(=O)C(F)(F)F)C(F)(F)F
Response: 1538.5

More entries:
Prompt: State its mass density: CC[N+](C)(CCO)CCO.O=S(=O)([N-]S(=O)(=O)C(F)(F)F)C(F)(F)F
Response: 1524.5

Prompt: Output measured mass density for this item: CC[N+](C)(C)CCCO.O=S(=O)([N-]S(=O)(=O)C(F)(F)F)C(F)(F)F
Response: 1472.2

###

conditions: 334.15 K; 100 kPa; Liquid; Vibrating tube method
Reported mass density values for a set of compounds
# value in kg/m3; strip the unit string

Prompt: Supply mass density value. Item: CC[N+](C)(C)CCOC.O=S(=O)([N-]S(=O)(=O)C(F)(F)F)C(F)(F)F
Response: 1397.6

Prompt: Answer with the recorded mass density for the compound listed here: CC[N+](C)(CCO)CCO.O=S(=O)([N-]S(=O)(=O)C(F)(F)F)C(F)(F)F
Response: 1483.2

Prompt: Answer with reported mass density of C[N+](CCO)(CCO)CCO.O=S(=O)([N-]S(=O)(=O)C(F)(F)F)C(F)(F)F
Response: 1534.5

Prompt: Respond only with mass density recorded for CCCC[N+](C)(C)CC.O=S(=O)([N-]S(=O)(=O)C(F)(F)F)C(F)(F)F
Response: 1340.3

Continuing:
Prompt: Give the value of mass density reported for the following: CC[N+](C)(C)CCCO.O=S(=O)([N-]S(=O)(=O)C(F)(F)F)C(F)(F)F
Response: 1432.1

Prompt: Answer with the recorded mass density of CC[N+](CCO)(CCO)CCO.O=S(=O)([N-]S(=O)(=O)C(F)(F)F)C(F)(F)F only.
Response: 1498.3

Prompt: Indicate its recorded mass density; the compound in question is CCCC[N+](CCO)(CCO)CCO.O=S(=O)([N-]S(=O)(=O)C(F)(F)F)C(F)(F)F
Response: 1425.5

Attribution: the NIST ThermoML archive (doi:10.1021/acs.jced.9b00442)
